Experiment: IV bolus PK of NPT-2042 in rat
Type: in vivo
Settings: in vivo; NPT-2042, rat, IV bolus 10 mg/kg; read-out: Vz
Assay Endpoint: Vd (L/kg)
Provide the reading as a plain figure in L/kg.

query: Give recorded Vd. CCCCNc1cc(C(=O)N(Cc2ccccc2)Cc2ccccc2)cc(S(N)(=O)=O)c1Oc1ccccc1 [NPT-2042]
result: 10.8

====

Assay: IV bolus PK of NPT-2042 in dog
Format: in vivo
Conditions: dog, plasma, iv, 10 mg/kg, NPT-2042, dog, IV bolus 10 mg/kg; animals 1201A, 1501A, Mean; read-out: Vz (volume of distribution)
Assay Endpoint: Vd (L/kg)
Provide the reading as a plain figure in L/kg.

query: Give recorded Vd. `CCCCNc1cc(C(=O)N(Cc2ccccc2)Cc2ccccc2)cc(S(N)(=O)=O)c1Oc1ccccc1`
result: 6.49

====

Experiment: IV bolus PK of NPT-2042 in dog
Assay type: in vivo
Details: dog, plasma, iv, 10 mg/kg, dog, IV bolus 10 mg/kg; animals 1201A, 1501A, Mean; read-out: Plasma NPT-2042 concentration, Time 0.08 h
Experimental: Assays were performed to determine absolute bioavailability of NPT2042 in two species: dog and rat. The calculation of absolute bioavailability depends on four inputs: the areas under the curves (AUC) for oral and IV, and the oral and IV doses. Testing was conducted to determine AUC for an IV dose in dog. The same two dogs were each dosed 2042 IV at 10 mg/kg. Table 8 provides Noncompartmental Parameters for NPT-2042 for 10 mg/kg Bolus Dosing of NPT-2042 in Dogs (n=2).
Assay Endpoint: concentration at 0.08 h (ng/mL)
Provide the reading as a plain figure in ng/mL.

query: Give recorded concentration at 0.08 h. CCCCNc1cc(C(=O)N(Cc2ccccc2)Cc2ccccc2)cc(S(N)(=O)=O)c1Oc1ccccc1 [NPT-2042]
result: 5560

====

Test: Oral dose PK of NPT2042 in dog (AUC for absolute bioavailability)
Type: in vivo
Settings: in vivo; dog, oral 30 mg/kg vs IV 10 mg/kg
Assay Endpoint: bioavailability (%)
Provide the reading as a plain figure in %.

query: Give recorded bioavailability. CCCCNc1cc(C(=O)N(Cc2ccccc2)Cc2ccccc2)cc(S(N)(=O)=O)c1Oc1ccccc1 [NPT-2042]
result: 5.1

====

Test: IV bolus PK of NPT-2042 in dog
Type: in vivo
Details: dog, plasma, iv, 10 mg/kg, NPT-2042, dog, IV bolus 10 mg/kg; animals 1201A, 1501A, Mean
Assay Endpoint: AUC(0-inf) (ng·h/mL)
Provide the reading as a plain figure in ng·h/mL.

query: Give recorded AUC(0-inf). CCCCNc1cc(C(=O)N(Cc2ccccc2)Cc2ccccc2)cc(S(N)(=O)=O)c1Oc1ccccc1 [NPT-2042]
result: 8560

====

Assay: IV bolus PK of NPT-2042 in rat
Type: in vivo
Details: plasma; NPT-2042, rat, IV bolus 10 mg/kg
Assay Endpoint: Tmax
Quick note: unit goes after the number.

query: Give recorded Tmax. `CCCCNc1cc(C(=O)N(Cc2ccccc2)Cc2ccccc2)cc(S(N)(=O)=O)c1Oc1ccccc1`
result: 4.8 min

====

Assay: Oral dose PK of NPT2042 in dog (AUC for absolute bioavailability)
Type: in vivo
Details: dog, in vivo, po, 30 mg/kg, NPT2042, dog, oral 30 mg/kg; animals D0001, D0601, Mean; read-out: Vz/F
Assay Endpoint: Vd/F (L/kg)
Provide the reading as a plain figure in L/kg.

query: Give recorded Vd/F. `CCCCNc1cc(C(=O)N(Cc2ccccc2)Cc2ccccc2)cc(S(N)(=O)=O)c1Oc1ccccc1`
result: 115

====

Test: IV bolus PK of NPT-2042 in dog
Format: in vivo
Conditions: dog, plasma, iv, 10 mg/kg, dog, IV bolus 10 mg/kg; animals 1201A, 1501A, Mean; read-out: Plasma NPT-2042 concentration, Time 1.00 h
Assay Endpoint: concentration at 1 h (ng/mL)
Provide the reading as a plain figure in ng/mL.

query: Give recorded concentration at 1 h. `CCCCNc1cc(C(=O)N(Cc2ccccc2)Cc2ccccc2)cc(S(N)(=O)=O)c1Oc1ccccc1`
result: 2240

====

Experiment: IV bolus PK of NPT-2042 in rat
Type: in vivo
Conditions: rat, plasma, iv, 10 mg/kg, rat, IV bolus 10 mg/kg; individual rats and Mean (N=3); read-out: NPT-2042 concentration, Time 0.08 h
Assay Endpoint: concentration at 0.08 h (ng/mL)
Provide the reading as a plain figure in ng/mL.

query: Give recorded concentration at 0.08 h. `CCCCNc1cc(C(=O)N(Cc2ccccc2)Cc2ccccc2)cc(S(N)(=O)=O)c1Oc1ccccc1`
result: 1720

====

Assay: IV bolus PK of NPT-2042 in dog
Format: in vivo
Conditions: dog, plasma, iv, 10 mg/kg, NPT-2042, dog, IV bolus 10 mg/kg; animals 1201A, 1501A, Mean; read-out: Cmax
Assay Endpoint: Cmax (ng/mL)
Provide the reading as a plain figure in ng/mL.

query: Give recorded Cmax. CCCCNc1cc(C(=O)N(Cc2ccccc2)Cc2ccccc2)cc(S(N)(=O)=O)c1Oc1ccccc1 [NPT-2042]
result: 5210

====

What Dog Mic (MS Intensity) was measured for each of the following?
System: Dog Microsomes
Assay: Metabolite screening of NPT-2042 in dog microsomes
Type: in vitro ADME
Settings: NPT-2042 10 uM, microsomes 1 mg/mL, 1 hour, NADPH regenerating system
Give the value as a plain number.

query: Give recorded Dog Mic (MS Intensity). `Nc1cc(C(=O)NCc2ccccc2)cc(S(N)(=O)=O)c1Oc1ccccc1`
result: 2.95E+06

query: Give recorded Dog Mic (MS Intensity). `Nc1cc(C(=O)N(Cc2ccccc2)Cc2ccccc2)cc(S(N)(=O)=O)c1Oc1ccccc1`
result: 3.11E+07

query: Give recorded Dog Mic (MS Intensity). `CCCCNc1cc(C(=O)NCc2ccccc2)cc(S(N)(=O)=O)c1Oc1ccccc1`
result: 4.12E+07

query: Give recorded Dog Mic (MS Intensity). `CCCCNc1cc(C(=O)N(Cc2ccccc2)Cc2ccccc2)cc(S(N)(=O)=O)c1Oc1ccccc1`
result: 1.85E+08

====

Test: Oral dose PK of NPT-2042 in rat
Format: in vivo
Conditions: plasma; NPT-2042, rat, oral 30 mg/kg
Experimental: Assays were performed to determine absolute bioavailability of NPT2042 in two species: dog and rat. The calculation of absolute bioavailability depends on four inputs: the areas under the curves (AUC) for oral and IV, and the oral and IV doses. Testing was conducted to determine AUCs for an oral dose in rat.
Assay Endpoint: AUC(0-inf) (ng·h/mL)
Provide the reading as a plain figure in ng·h/mL.

query: Give recorded AUC(0-inf). `CCCCNc1cc(C(=O)N(Cc2ccccc2)Cc2ccccc2)cc(S(N)(=O)=O)c1Oc1ccccc1`
result: 35.4

====

Test: IV bolus PK of NPT-2042 in dog
Type: in vivo
Conditions: dog, plasma, iv, 10 mg/kg, NPT-2042, dog, IV bolus 10 mg/kg; animals 1201A, 1501A, Mean; read-out: C0 (back-extrapolated concentration)
Protocol: Assays were performed to determine absolute bioavailability of NPT2042 in two species: dog and rat. The calculation of absolute bioavailability depends on four inputs: the areas under the curves (AUC) for oral and IV, and the oral and IV doses. Testing was conducted to determine AUC for an IV dose in dog. The same two dogs were each dosed 2042 IV at 10 mg/kg. Table 8 provides Noncompartmental Parameters for NPT-2042 for 10 mg/kg Bolus Dosing of NPT-2042 in Dogs (n=2).
Assay Endpoint: C0 (ng/mL)
Provide the reading as a plain figure in ng/mL.

query: Give recorded C0. `CCCCNc1cc(C(=O)N(Cc2ccccc2)Cc2ccccc2)cc(S(N)(=O)=O)c1Oc1ccccc1`
result: 6060

====

What Human Mic (MS Intensity) was measured for each of the following?
Tested on: Human Microsomes
Assay: Metabolite screening of NPT-2042 in human microsomes
Assay type: in vitro ADME
Details: NPT-2042 10 uM, microsomes 1 mg/mL, 1 hour, NADPH regenerating system
Give the value as a plain number.

query: Give recorded Human Mic (MS Intensity). `Nc1cc(C(=O)NCc2ccccc2)cc(S(N)(=O)=O)c1Oc1ccccc1`
result: 1.42E+06

query: Give recorded Human Mic (MS Intensity). `CCCCNc1cc(C(=O)N(Cc2ccccc2)Cc2ccccc2)cc(S(N)(=O)=O)c1Oc1ccccc1`
result: 1.64E+08

query: Give recorded Human Mic (MS Intensity). `Nc1cc(C(=O)N(Cc2ccccc2)Cc2ccccc2)cc(S(N)(=O)=O)c1Oc1ccccc1`
result: 2.52E+07

query: Give recorded Human Mic (MS Intensity). `CCCCNc1cc(C(=O)NCc2ccccc2)cc(S(N)(=O)=O)c1Oc1ccccc1`
result: 3.25E+07
